System: ACHN renal
Experiment: NCI-60 one-dose screen, 48 h
Details: 10 µM
Experimental: Growth inhibition of the ACHN human tumor cell line is measured as a screen for anti-cancer activity. Cells are grown in 96 well plates and exposed to the test compound for 48 hours. Compounds are tested at a single concentration, which is 10^-5 M for most compounds. The reported endpoint is percent growth (GI% or GIPRCNT), where numbers from 0 - 100% represent growth inhibition, and numbers from -100% - 0 represent cell death. For example, a value of 40 represents 60% growth inhibition. […]
About 83,000 compounds went through this panel and 20% of them were active in at least one assay; those are over-represented in the sample as a whole. Activity calls are given as the source filed them. The calls were made as follows: active = growth percent below 10; inactive = the rest.
Would you mind answering with one of these outcomes? Y (active), N (inactive)

compound	qualitative-label
O=C1/C(=C/c2ccc(O)cc2)Cc2ccc(Cl)cc21	N
COc1ccc2c(=O)cc(C(Cl)(Cl)Cl)oc2c1	N
Cn1c([N+](=O)[O-])cnc1/C=C1\Oc2ccc(Br)cc2C1=O	Y
CCOC(=S)Sc1ccc([N+](=O)[O-])cc1[N+](=O)[O-]	N
CCCCCN(CCCCC)C(C)C(O)c1ccc2cc(Cl)c3ccccc3c2c1 (stereo not given)	N
COc1ccc2oc(=O)cc(C3c4ccc([nH]4)C(c4cc(=O)oc5ccc(OC)cc45)c4ccc([nH]4)C(c4cc(=O)oc5ccc(OC)cc45)c4ccc([nH]4)C(c4cc(=O)oc5ccc(OC)cc45)c4ccc3[nH]4)c2c1 (stereo not given)	Y
O=S(=O)(NC1c2ccccc2Oc2ccccc21)c1ccccc1	N
Cc1ccc(/C(CS(=O)(=O)c2ccc(C)cc2)=N\O)cc1	N

Q: Status in this test for `N#C/C(=C/c1cc([N+](=O)[O-])ccc1Cl)C(N)=O` ?
Ans: N

Q: Dear colleague, could you share the recorded outcome for `C[C@@H]1C(=O)N(C[C@H](Cc2ccccc2)NC(=O)OCc2ccccc2)[C@]1(Cc1ccccc1)C(=O)OCc1ccccc1` when you have a moment?
Ans: N
